Entries with their measured Ki, system Cannabinoid receptor 1 (Homo sapiens, UniProt P21554):

Query: Name the recorded Ki for O=C(N1CCCCC1)N1CC(O[C@H](c2ccc(Cl)cc2)c2cccnc2Cl)C1 .
Result: < 10 nM

Query: Name the recorded Ki for O=C(N1CCCCC1)N1CC(OC(c2ccc(Cl)cc2)c2cccnc2Cl)C1 (racemic) .
Result: < 10 nM

---

Biological target: Fatty-acid amide hydrolase 1 (Rattus norvegicus)
Sequence (P97612 whole entry): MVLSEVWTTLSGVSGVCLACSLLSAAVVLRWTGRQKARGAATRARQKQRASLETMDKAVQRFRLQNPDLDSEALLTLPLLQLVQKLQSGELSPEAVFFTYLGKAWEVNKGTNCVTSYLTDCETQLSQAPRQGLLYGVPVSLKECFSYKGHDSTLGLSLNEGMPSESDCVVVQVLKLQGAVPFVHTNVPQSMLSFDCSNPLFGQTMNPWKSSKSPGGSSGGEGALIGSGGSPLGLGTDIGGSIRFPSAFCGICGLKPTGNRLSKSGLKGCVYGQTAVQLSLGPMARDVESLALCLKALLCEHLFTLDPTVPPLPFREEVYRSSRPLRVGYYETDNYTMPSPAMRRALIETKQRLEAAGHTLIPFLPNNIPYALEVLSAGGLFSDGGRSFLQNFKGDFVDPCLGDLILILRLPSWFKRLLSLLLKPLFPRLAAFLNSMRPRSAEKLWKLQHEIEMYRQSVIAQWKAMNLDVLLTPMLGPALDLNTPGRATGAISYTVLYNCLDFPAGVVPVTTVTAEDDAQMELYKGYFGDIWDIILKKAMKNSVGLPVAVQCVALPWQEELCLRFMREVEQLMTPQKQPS
Test: Inhibition of rat FAAH incubated 1 hr prior to addition of arachidonyl-amino-methyl-coumarin amide
readout_name: IC50

Query: Name the recorded IC50 for O=C(N1CCCCC1)N1CC(O[C@H](c2ccc(Cl)cc2)c2cccnc2Cl)C1 .
Result: > 10000 nM

Query: Name the recorded IC50 for O=C(N1CCCCC1)N1CC(O[C@@H](c2ccc(Cl)cc2)c2cccnc2Cl)C1 .
Result: 1030 nM
